The reported measurements were obtained from patent US20150258192A1.

Listing of entries alongside the reported % activity.
Tgt: FGFR3(h) (Homo sapiens)
Sequence (P22607 23-806): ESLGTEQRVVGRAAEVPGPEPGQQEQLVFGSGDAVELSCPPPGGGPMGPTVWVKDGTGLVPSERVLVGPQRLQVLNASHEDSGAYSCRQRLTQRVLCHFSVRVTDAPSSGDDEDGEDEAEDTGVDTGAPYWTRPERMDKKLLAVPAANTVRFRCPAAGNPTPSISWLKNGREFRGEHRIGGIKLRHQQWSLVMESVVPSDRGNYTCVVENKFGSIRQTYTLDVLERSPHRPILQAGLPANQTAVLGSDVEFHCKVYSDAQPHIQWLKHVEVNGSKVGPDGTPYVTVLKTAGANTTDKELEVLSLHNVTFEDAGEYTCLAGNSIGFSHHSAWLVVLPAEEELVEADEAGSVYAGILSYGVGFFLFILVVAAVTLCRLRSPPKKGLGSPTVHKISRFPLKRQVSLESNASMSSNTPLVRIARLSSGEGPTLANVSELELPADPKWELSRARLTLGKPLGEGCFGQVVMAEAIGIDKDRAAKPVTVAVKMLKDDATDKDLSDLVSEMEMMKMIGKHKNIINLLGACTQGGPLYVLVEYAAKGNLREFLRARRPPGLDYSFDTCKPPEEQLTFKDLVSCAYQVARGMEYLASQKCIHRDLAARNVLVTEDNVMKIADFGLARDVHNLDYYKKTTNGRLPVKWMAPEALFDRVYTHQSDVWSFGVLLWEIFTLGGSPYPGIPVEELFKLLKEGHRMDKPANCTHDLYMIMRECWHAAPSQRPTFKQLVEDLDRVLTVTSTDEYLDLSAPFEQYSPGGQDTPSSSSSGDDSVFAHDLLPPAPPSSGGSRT
Assay Explanation: Kinase Profiling Assay
Assay type: biochemical
Reported Conditions: peptide 100 μM
No end group written: not given here.
Numeric answer only, unit % assumed.

Exercise: Consider the sequence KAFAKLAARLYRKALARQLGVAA [MMI-0400] and give its measured % activity.
Solution: 0

Continuing:
Exercise: Would you mind telling me what % activity value was observed for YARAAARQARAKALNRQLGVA (Mammal) [MMI-0200] ?
Solution: 208

Exercise: Which % activity reading was recorded for the sequence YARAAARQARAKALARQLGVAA [MMI-0100] ?
Solution: 73

Exercise: For the sequence shown here, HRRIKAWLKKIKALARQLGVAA (Mammal) [MMI-0500] , give the reported % activity.
Solution: 10

---

Tgt: PKCμ(h) (Homo sapiens)
Sequence (Q15139 1-912): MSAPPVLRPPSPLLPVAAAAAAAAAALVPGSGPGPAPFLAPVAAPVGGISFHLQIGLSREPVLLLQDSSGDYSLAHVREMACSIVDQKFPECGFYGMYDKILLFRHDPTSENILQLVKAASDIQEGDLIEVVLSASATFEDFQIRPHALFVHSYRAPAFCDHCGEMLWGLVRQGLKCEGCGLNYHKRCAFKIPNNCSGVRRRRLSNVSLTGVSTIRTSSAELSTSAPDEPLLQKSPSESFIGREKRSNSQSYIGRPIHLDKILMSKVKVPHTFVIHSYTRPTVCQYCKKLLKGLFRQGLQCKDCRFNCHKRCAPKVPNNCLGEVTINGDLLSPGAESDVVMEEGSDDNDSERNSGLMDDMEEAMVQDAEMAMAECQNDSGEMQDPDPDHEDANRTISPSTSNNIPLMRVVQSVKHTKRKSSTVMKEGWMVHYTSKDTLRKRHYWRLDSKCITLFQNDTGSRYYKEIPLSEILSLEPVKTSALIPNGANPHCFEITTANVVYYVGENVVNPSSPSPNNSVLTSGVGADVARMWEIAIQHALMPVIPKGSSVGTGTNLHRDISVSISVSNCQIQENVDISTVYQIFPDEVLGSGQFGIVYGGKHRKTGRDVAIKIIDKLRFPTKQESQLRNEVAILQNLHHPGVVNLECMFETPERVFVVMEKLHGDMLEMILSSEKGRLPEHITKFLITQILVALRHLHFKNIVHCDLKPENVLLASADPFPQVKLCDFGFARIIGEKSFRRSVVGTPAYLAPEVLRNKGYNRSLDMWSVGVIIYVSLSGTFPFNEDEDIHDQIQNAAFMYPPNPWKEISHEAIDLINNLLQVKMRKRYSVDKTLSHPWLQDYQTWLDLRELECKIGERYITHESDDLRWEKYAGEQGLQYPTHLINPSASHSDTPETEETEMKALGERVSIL
Assay Explanation: Kinase Profiling Assay
Format: biochemical
Reported Conditions: peptide 100 μM
No end group written: not given here.
% activity for assorted sequences

Exercise: Which value of % activity has been reported for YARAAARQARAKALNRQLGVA (Mammal) [MMI-0200] in the records?
Solution: 73%

Further cases:
Exercise: Request the reported % activity associated with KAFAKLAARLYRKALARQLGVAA [MMI-0400]
Solution: 14%

Exercise: Return reported % activity; argument: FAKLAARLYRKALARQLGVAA [MMI-0300]
Solution: 22%

Exercise: Field request: % activity | item: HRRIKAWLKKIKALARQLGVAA (Mammal) [MMI-0500]
Solution: 10%

Exercise: May I ask what % activity has been recorded for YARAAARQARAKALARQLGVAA [MMI-0100] ?
Solution: 79%
